Target: UniProt Q9BY41
Sequence (Q9BY41 whole entry): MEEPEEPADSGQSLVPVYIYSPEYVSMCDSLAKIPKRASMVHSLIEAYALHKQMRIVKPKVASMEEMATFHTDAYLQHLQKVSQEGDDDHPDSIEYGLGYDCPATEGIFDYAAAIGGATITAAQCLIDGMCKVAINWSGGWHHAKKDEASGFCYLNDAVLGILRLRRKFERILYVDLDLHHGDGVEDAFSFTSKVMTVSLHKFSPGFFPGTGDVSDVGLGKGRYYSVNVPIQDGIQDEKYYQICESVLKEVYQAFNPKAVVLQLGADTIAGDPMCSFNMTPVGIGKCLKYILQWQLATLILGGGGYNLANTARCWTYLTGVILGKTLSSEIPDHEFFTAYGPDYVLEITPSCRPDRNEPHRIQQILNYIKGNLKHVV
Assay: Inhibition of human KDAC8 at 30 uM after 60 mins by fluorescence assay relative to control
Observation Type: inhibition (%)
Record the value in %, omitting the unit from your answer.

# count of solved cases: 2
# Smiles Input, System Tested, Observation Type, Result Value
measured = [
    ("NC(=O)CC[C@@H]1N=C(c2ccccc2)c2ccccc2N(CCCCC(=O)NO)C1=O", "UniProt Q9BY41", "inhibition", 30.8),
    ("CC(C)(C)OC(=O)NCCCC[C@@H]1N=C(c2ccccc2)c2ccccc2NC1=O", "UniProt Q9BY41", "inhibition", 0),
]

## Task Give inhibition for the following compound: Cc1c(C)c(S(=O)(=O)NC(=N)NCCC[C@@H]2N=C(c3ccccc3)c3ccccc3N(CCCCC(=O)O)C2=O)c(C)c2c1OC(C)(C)C2
## Result 10.2

====

Molecular target: Histone deacetylase 1 (Homo sapiens)
Sequence (Q13547 whole entry): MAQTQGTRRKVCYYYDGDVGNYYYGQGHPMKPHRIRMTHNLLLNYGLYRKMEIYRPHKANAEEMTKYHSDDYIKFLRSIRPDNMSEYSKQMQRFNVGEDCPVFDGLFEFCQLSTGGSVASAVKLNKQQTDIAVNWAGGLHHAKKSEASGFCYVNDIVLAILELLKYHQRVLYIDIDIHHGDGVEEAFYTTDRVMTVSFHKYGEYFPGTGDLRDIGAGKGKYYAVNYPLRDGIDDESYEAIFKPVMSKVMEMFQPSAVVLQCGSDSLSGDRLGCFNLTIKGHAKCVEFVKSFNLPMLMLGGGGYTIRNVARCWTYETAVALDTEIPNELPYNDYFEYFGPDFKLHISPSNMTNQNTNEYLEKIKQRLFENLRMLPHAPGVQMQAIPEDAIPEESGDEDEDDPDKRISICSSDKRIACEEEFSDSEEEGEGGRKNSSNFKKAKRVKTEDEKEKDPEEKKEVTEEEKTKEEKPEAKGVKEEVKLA
// NB: equality with 10 µM counts as class 0; only IC50 strictly below is class 1

// below: answered compounds
# Smiles Input, Qualitative Label
records = [
    ("CC(C)C[C@@H]1N=C(c2ccccc2)c2ccccc2N(CCCCC(=O)NO)C1=O", "class 1"),
    ("CC(C)(C)OC(=O)NCCCC[C@@H]1N=C(c2ccccc2)c2ccccc2N(CCCCC(=O)O)C1=O", "class 0"),
]

## Task Lab log: compare recorded IC50 with 10 µM; is it strictly lower for N=C(N)NCCC[C@@H]1N=C(c2ccccc2)c2ccccc2N(CCCCC(=O)NO)C1=O ?
## Result class 1

## Task Problem: For the compound COC(=O)CCCCN1C(=O)[C@H](CCC(=O)NC(c2ccccc2)(c2ccccc2)c2ccccc2)N=C(c2ccccc2)c2ccccc21 , is IC50 under 10 µM?
## Result class 0

====

Molecular target: Histone deacetylase 3 (Homo sapiens, UniProt O15379)
Sequence (O15379 whole entry): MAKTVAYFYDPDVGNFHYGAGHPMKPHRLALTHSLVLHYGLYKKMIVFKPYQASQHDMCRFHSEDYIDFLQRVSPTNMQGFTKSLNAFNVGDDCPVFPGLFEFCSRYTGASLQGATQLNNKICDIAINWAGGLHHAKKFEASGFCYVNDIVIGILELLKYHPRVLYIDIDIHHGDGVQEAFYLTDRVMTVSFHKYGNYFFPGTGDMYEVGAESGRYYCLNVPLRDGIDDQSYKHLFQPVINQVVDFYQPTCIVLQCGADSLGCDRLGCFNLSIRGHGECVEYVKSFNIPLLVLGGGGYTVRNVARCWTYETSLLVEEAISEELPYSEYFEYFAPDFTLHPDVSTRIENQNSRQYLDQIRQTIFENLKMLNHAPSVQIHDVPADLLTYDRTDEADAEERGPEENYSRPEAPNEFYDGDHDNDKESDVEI
Experiment: Inhibition of human KDAC3 at 30 uM using FITC-labeled p53 acetylated peptide as substrate after 60 mins by fluorescence assay relative to control
Known inhibition of a selection of compounds
// units = %; emit number, no label

# Smiles Input, Result Value
measured = [
    ("C[C@H](OCc1ccccc1)[C@@H]1N=C(c2ccccc2)c2ccccc2NC1=O", 2.49),
    ("CC[C@H](C)[C@@H]1N=C(c2ccccc2)c2ccccc2N(CCCCC(=O)OC)C1=O", 0),
    ("CC[C@@H](C)[C@@H]1N=C(c2ccccc2)c2ccccc2N(CCCCC(=O)NO)C1=O", 96.4),
]

## Task Give inhibition for COC(=O)CCCCN1C(=O)[C@H](CCC(=O)NC(c2ccccc2)(c2ccccc2)c2ccccc2)N=C(c2ccccc2)c2ccccc21
## Result 0

## Task Input COC(=O)CCCCN1C(=O)[C@H](CC(=O)NC(c2ccccc2)(c2ccccc2)c2ccccc2)N=C(c2ccccc2)c2ccccc21 , output reported inhibition.
## Result 5.6

## Task Please give measured inhibition of the following entry: O=C(CCCCN1C(=O)[C@H](CCC(=O)NO)N=C(c2ccccc2)c2ccccc21)NO
## Result 92.2

## Task Could you please provide reported inhibition for CC(C)(C)OC(=O)C[C@@H]1N=C(c2ccccc2)c2ccccc2N(CCCCC(=O)NO)C1=O ? Thanks!
## Result 91.5

## Task State its inhibition: O=C(CCCCN1C(=O)[C@H](CC(=O)NC(c2ccccc2)(c2ccccc2)c2ccccc2)N=C(c2ccccc2)c2ccccc21)NO
## Result 89.5

## Task Name the recorded inhibition of the item O=C(O)CC[C@H]1N=C(c2ccccc2)c2ccccc2NC1=O in your answer.
## Result 0

## Task Quote inhibition reported for O=C1Nc2ccccc2C(c2ccccc2)=N[C@H]1Cc1cn(C(c2ccccc2)(c2ccccc2)c2ccccc2)cn1 please.
## Result 0

## Task Please supply the value of reported inhibition for the item C[C@@H]1N=C(c2ccccc2)c2ccccc2N(CCCCC(=O)NO)C1=O
## Result 93.8

## Task For the compound O=C(CC[C@@H]1N=C(c2ccccc2)c2ccccc2NC1=O)NO , give its measured inhibition value.
## Result 4.57

## Task Output inhibition of O=C(CC[C@@H]1N=C(c2ccccc2)c2ccccc2NC1=O)NC(c1ccccc1)(c1ccccc1)c1ccccc1
## Result 0

## Task # return recorded inhibition for entry O=C(O)CCCCN1C(=O)[C@H](CC(=O)NC(c2ccccc2)(c2ccccc2)c2ccccc2)N=C(c2ccccc2)c2ccccc21
## Result 7.32

## Task Annotate the compound CC(C)(C)SC[C@H]1N=C(c2ccccc2)c2ccccc2N(CCCCC(=O)O)C1=O with its measured inhibition.
## Result 0

Every entry's value here was drawn from ChEMBL document CHEMBL3997794.
